tested on: acetylation of chromatin at H3K18 (catalyzed by p300 and CBP) in HCT-116 cells; experiment: H3K18Ac MSD cellular assay; format: cell-based; details: 2 hr treatment, average of at least 2 replicate titrations
pEC50: −log10 of the molar value.
measurement name: pEC50

A = CC(CNC(C(=O)c1c[nH]c2ccccc12)c1ccccc1)c1ccc(Cl)cc1 (single isomer, unassigned) [26 Isomer 4]
B = CCNC(=O)c1ccc2c(C(=O)[C@@H](NCCc3ccc(C#N)cc3)c3ccccc3)c[nH]c2c1 (single isomer, unassigned) [146 Isomer 2]
C = N#Cc1ccc(CCNC(C(=O)c2c[nH]c3cc(-n4ccnc4)ccc23)c2ccccc2)cc1 (single isomer, unassigned) [120 Isomer 2]
Query: Hello, I need these entries ordered by pEC50, highest reading first. Thanks! Please list the labels according to the requested order.
Response: B, C, A
(B: 7.44, C: 7.14, A: 6.86)

----------
Biological target: p300 HAT domain (residues 1287-1666) (Homo sapiens (Human), UniProt Q09472)
Sequence (Q09472 1287-1666): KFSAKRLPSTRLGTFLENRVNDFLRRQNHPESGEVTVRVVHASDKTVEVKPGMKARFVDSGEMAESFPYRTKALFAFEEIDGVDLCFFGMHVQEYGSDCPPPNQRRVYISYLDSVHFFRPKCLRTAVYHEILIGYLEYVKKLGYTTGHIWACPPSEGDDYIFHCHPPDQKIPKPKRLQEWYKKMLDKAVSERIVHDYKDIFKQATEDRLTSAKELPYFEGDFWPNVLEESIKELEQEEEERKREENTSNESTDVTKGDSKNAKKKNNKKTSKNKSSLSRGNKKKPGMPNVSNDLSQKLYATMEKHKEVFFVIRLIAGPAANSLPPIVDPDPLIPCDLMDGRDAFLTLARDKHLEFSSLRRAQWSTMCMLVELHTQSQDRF
Assay: p300 HAT SPA assay (scintillation proximity assay, acetylation of biotinylated H3(1-21) peptide)
Assay type: biochemical
Details: p300 HAT domain; average of at least 2 replicate titrations; read-out: P300 HAT SPA IC50
Description: In a typical experiment the p300 HAT inhibitory activity of the compounds described herein was determined in accordance with the following experimental method. The expressed protein was purified by Ni2+ affinity, followed by anion exchange chromatography. […] 35 μL of the reaction volume was transferred to a 384-well streptavidin FlashPlate (PerkinElmer) using a Bravo liquid handler (Velocity 11) and incubated for 1.5 hr at RT. […] Data were analyzed in Genedata to determine inhibitor IC50 values.
measurement name: IC50 (nM)

Some solved entries appear below for comparison.
> print(dat)
                                   compound  measurement.name  reported.value
1  Cn1cc(-c2ccc3c(C(=O)C(NCCc4ccc(F)cc4)c4ccccc4)c[nH]c3c2)cn1 (single isomer, unassigned) [78 Isomer 1]              IC50           12900
2  CC(CNC(C(=O)c1cnn2cc(C(=O)NC[C@@H](C)O)ccc12)c1ccccc1)c1ccc(C#N)cc1 (single isomer, unassigned) [70 Isomer 4]              IC50            21.8
3  Cc1ccc(-c2ccc3c(C(=O)C(NCCc4ccc(Cl)cc4)c4ccccc4)c[nH]c3c2)cn1 (single isomer, unassigned) [88 Isomer 2]              IC50             603
4  Cc1ccc(CCNC(C(=O)c2c[nH]c3ccccc23)c2ccccc2)cc1 (single isomer, unassigned) [38 Isomer 1]              IC50           19000
5  NS(=O)(=O)c1ccc(CCNC(C(=O)c2c[nH]c3cc(Cl)ccc23)c2ccccc2)cc1 (single isomer, unassigned) [13 Isomer 1]              IC50           18100

1 = Cc1nc(C(=O)C(NCCc2ccc(Cl)cc2)c2ccccc2)c2ccccn12 (single isomer, unassigned) [45 Isomer 2]
2 = O=C(c1c[nH]c2ccccc12)C(NCCc1ccc(Cl)cc1Cl)c1ccccc1 (single isomer, unassigned) [19 Isomer 2]
3 = CC(C)NC(=O)c1ccc2c(C(=O)C(NCCc3ccc(C#N)cc3)c3ccccc3)c[nH]c2c1 (single isomer, unassigned) [167 Isomer 1]
4 = Cn1cc(-c2ccc3c(C(=O)C(NCCc4ccc(Cl)cc4)c4ccccc4)c[nH]c3c2)cn1 (single isomer, unassigned) [83 Isomer 2]
5 = Cn1cc(-c2ccc3c(C(=O)C(NCCc4ccc(C#N)cc4Cl)c4ccccc4)c[nH]c3c2)cn1 (single isomer, unassigned) [72 Isomer 2]
Query: Arrange the 5 entries by IC50 so the values rise. Please list the labels according to the requested order.
Response: 3, 5, 4, 2, 1

A = C[C@H](NC(=O)c1ccc2c(C(=O)C(NCCc3ccc(C#N)cc3)c3ccccc3)c[nH]c2c1)C(F)(F)F (single isomer, unassigned) [169 Isomer 1]
B = CCn1cc(-c2ccc3c(C(=O)C(NCCc4ccc(Cl)cc4)c4ccccc4)c[nH]c3c2)cn1 (single isomer, unassigned) [86 Isomer 2]
Query: Please indicate which item has the smaller measured IC50: A versus B # reply format: chosen label
Response: B

----------
biological target: p300 HAT domain (residues 1287-1666) (Homo sapiens (Human)); test: p300 HAT SPA assay (scintillation proximity assay, acetylation of biotinylated H3(1-21) peptide); type: biochemical; conditions: p300 HAT domain; average of at least 2 replicate titrations; read-out: P300 HAT SPA IC50
pIC50: −log10 of the molar value.
measurement name: pIC50

> print(dat)
                                   compound                     target.or.test.system  reported.value
1  CC(Cc1ccc(C(N)=O)cc1)NC(C(=O)c1c[nH]c2ccccc12)c1ccccc1 (single isomer, unassigned) [140 Isomer 2]  p300 HAT domain (residues 1287-1666) (Homo sapiens (Human))            5.81

1 = O=C(c1cnc2ccccn12)C(NCCc1ccc(Cl)cc1)c1ccccc1 (single isomer, unassigned) [46 Isomer 2]
2 = COCCNC(=O)c1ccc2c(C(=O)C(NCCc3ccc(Cl)cc3Cl)c3ccccc3)c[nH]c2c1 (single isomer, unassigned) [154 Isomer 2]
3 = CN(C)C(=O)Cc1ccc2c(C(=O)C(NCCc3ccc(C#N)cc3)c3ccccc3)c[nH]c2c1 (single isomer, unassigned) [63 Isomer 1]
Query: Arrange the 3 entries by pIC50 so the values rise. Please list the labels according to the requested order.
Response: 1, 2, 3
(1: 5.18, 2: 5.79, 3: 6.42)

----------
molecular target: p300 HAT domain (residues 1287-1666) (Homo sapiens (Human)); assay: p300 HAT SPA assay (scintillation proximity assay, acetylation of biotinylated H3(1-21) peptide); type: biochemical; details: p300 HAT domain; average of at least 2 replicate titrations; read-out: P300 HAT SPA IC50
measurement name: IC50 (nM)

> print(dat)
                                   molecule  reported.value
1  NS(=O)(=O)c1ccc(CCNC(C(=O)c2c[nH]c3cnccc23)c2ccccc2)cc1 (single isomer, unassigned) [32 Isomer 1]            1450

A = O=C(c1c[nH]c2ccccc12)[C@@H](NCCc1ccc(-c2nn[nH]n2)cc1)c1ccccc1 (single isomer, unassigned) [185 Isomer 1]
B = Cc1nnc(-c2ccc3c(C(=O)C(NCCc4ccc(Cl)cc4)c4ccccc4)c[nH]c3c2)o1 (single isomer, unassigned) [107 Isomer 1]
C = CCNC(=O)c1ccc2c(C(=O)C(NCCc3ccc(C#N)cc3)c3ccccc3)cnn2c1 (single isomer, unassigned) [73 Isomer 1]
Query: Order field: IC50 | Direction: descending (largest first) Please list the labels according to the requested order.
Response: B, A, C
(B: 1900 nM, A: 1100 nM, C: 286 nM)

----------
Molecular target: p300 HAT domain (residues 1287-1666) (Homo sapiens (Human), UniProt Q09472)
Test: p300 HAT SPA assay (scintillation proximity assay, acetylation of biotinylated H3(1-21) peptide)
Assay type: biochemical
Conditions: p300 HAT domain; average of at least 2 replicate titrations; read-out: P300 HAT SPA IC50
Method: In a typical experiment the p300 HAT inhibitory activity of the compounds described herein was determined in accordance with the following experimental method. The expressed protein was purified by Ni2+ affinity, followed by anion exchange chromatography. […] 35 μL of the reaction volume was transferred to a 384-well streptavidin FlashPlate (PerkinElmer) using a Bravo liquid handler (Velocity 11) and incubated for 1.5 hr at RT. […] Data were analyzed in Genedata to determine inhibitor IC50 values.
measurement name: IC50 (µM)

Some solved entries appear below for comparison.
> print(dat)
                                   molecule  measurement.name  reported.value
1  N#Cc1ccc(CCNC(C(=O)c2c[nH]c3ccccc23)c2ccccc2)cc1 (single isomer, unassigned) [58 Isomer 1]              IC50            25.3
2  N#Cc1ccc(CCNC(C(=O)c2cnn3cc(-c4cn[nH]c4)ccc23)c2ccccc2)cc1 (single isomer, unassigned) [99 Isomer 1]              IC50           0.212
3  CC(CNC(C(=O)c1c[nH]c2ccccc12)c1ccccc1)c1ccc(Cl)cc1 (single isomer, unassigned) [26 Isomer 2]              IC50            4.56
4  O=C(c1c[nH]c2cc(-c3ccccn3)ccc12)C(NCCc1ccc(Cl)cc1)c1ccccc1 (single isomer, unassigned) [108 Isomer 1]              IC50             1.6
5  CN1CCN(c2ccc3c(C(=O)C(NCCc4ccc(C#N)cc4)c4ccccc4)c[nH]c3c2)CC1 (single isomer, unassigned) [122 Isomer 2]              IC50           0.044

a = COc1cccc2c(C(=O)[C@@H](NCCc3ccc(S(N)(=O)=O)cc3)c3ccccc3)c[nH]c12 (single isomer, unassigned) [144 Isomer 1]
b = CNC(=O)c1ccc2c(C(=O)C(NCCc3ccc(C#N)cc3)c3ccccc3)c[nH]c2c1 (single isomer, unassigned) [156 Isomer 2]
Query: Please indicate which item has the smaller measured IC50: a versus b # reply format: chosen label
Response: b
(b: 0.017 µM, a: 9.95 µM)
